assay: resazurin metabolic signal in HepG2 cells – cell-based, resazurin fluorescence, 24 h, PK04 Diversity Set, profiling panel (AID 1172); settings: HepG2 viability, higher = more signal; also: test concentration not given here
Label MET when z-score is strictly below -0.9; at or above that, label NOT MET.

• COC(=O)[C@@]1(Cc2ccc(OC)cc2)[C@H]2c3cc(C(=O)N4CCCC4)n(CCCNc4ncc(C(F)(F)F)cc4Cl)c3C[C@H]2CN1C(=O)c1ccccc1 = NOT MET
• O=C(O)[C@H](Cc1ccccc1)n1cc(-c2ccccc2)nn1 = NOT MET
• COC(=O)[C@@]1(Cc2ccccc2)[C@H]2c3cc(C(=O)N(C)C)n(CCc4c[nH]c5ccc(O)cc45)c3C[C@H]2CN1C(=O)c1ccccc1 = NOT MET
• CS(=O)(=O)CCOC(=O)C1=CC(CCCO)=CC(C2CC2)N(Cc2cc3c(cc2Br)OCO3)C=C1C(=O)OCCS(C)(=O)=O (stereo not given) = NOT MET
• COC(=O)[C@@]1(Cc2ccc(OC)cc2)[C@H]2c3cc(C(=O)N4CCCC4)n(CCc4ccc(O)c(O)c4)c3C[C@H]2CN1C(=O)c1ccccc1 = MET
• COCCOC(=O)N1C(=O)[C@@]2(c3ccccc31)[C@H](C(=O)N1CCc3cc(OC)c(OC)cc3C1)[C@H]1C(=O)O[C@H](c3ccccc3)[C@H](c3ccccc3)N1[C@@H]2c1ccc(O)cc1 = NOT MET
• COC(=O)[C@@]1(Cc2ccc(F)cc2)[C@H]2c3cc(C(=O)N(C)C)n(Cc4ccc(C)o4)c3C[C@H]2CN1C(=O)c1ccccc1 = NOT MET
• O=C1NC(=O)C2C1C=CC(C(O)C=Cc1ccc([N+](=O)[O-])cc1)N2Nc1ccc(Cl)cc1Cl (stereo not given) = MET
• COC(=O)[C@H](Cc1ccccc1)N[C@H](/C=C/C1CC1)[C@@H](O)Cc1ccccc1 = NOT MET
• C=C(CCCC)/C(=C/C[C@H](OC(=O)c1ccncc1)c1ccc(OCCO)cc1)c1cc(C(=O)OC)ccc1OC = NOT MET
• CC1CC/C=C\[C@H]2OC34C=CCN(Cc5ccccc5)C(=O)[C@H]3N(C(C)CO)C(=O)[C@@H]4C2C(=O)O1 (stereo not given in full) = NOT MET
• [N-]=[N+]=Nc1ccccc1C[C@]1(C(=O)NCc2ccccc2)N=C(c2ccc(OCCCO)cc2)O[C@H]1c1ccccc1N=[N+]=[N-] = MET
